Target: Cathepsin B (Bos taurus) (UniProt P07688)
Experiment: Specificity constant is determined from the ratio of the inactivation rate constants (Kcat/Km)of the cathepsin B.
OBSERVED_PROPERTY: k cat/Km (M⁻¹ s⁻¹)

Example cases with answers are listed next.
{"COMPOUND_STRUCTURE": "CC(=O)N[C@@H](Cc1ccccc1)C(=O)NN(C)C(=O)Oc1ccccc1", "k cat/Km [M⁻¹ s⁻¹]": 18}
{"COMPOUND_STRUCTURE": "CC(=O)N[C@@H](Cc1ccccc1)C(=O)NNC(=O)OCC(Cl)(Cl)Cl", "k cat/Km [M⁻¹ s⁻¹]": 730}
{"COMPOUND_STRUCTURE": "NCCCC[C@H](NC(=O)OCc1ccccc1)C(=O)Oc1ccc([N+](=O)[O-])cc1", "k cat/Km [M⁻¹ s⁻¹]": 776000}
{"COMPOUND_STRUCTURE": "O=C(N[C@@H](Cc1ccccc1)C(=O)Oc1ccc([N+](=O)[O-])cc1)OCc1ccccc1", "k cat/Km [M⁻¹ s⁻¹]": 80000}

I: CC(=O)N[C@@H](Cc1ccccc1)C(=O)NNC(=O)Oc1ccccc1
II: C[C@H](NC(=O)OCc1ccccc1)C(=O)Oc1ccc([N+](=O)[O-])cc1
Short answer wanted: higher k cat/Km, I or II ? Provide the label of your selected option as the answer.
II
(II: 450000 M⁻¹ s⁻¹, I: 7730 M⁻¹ s⁻¹)

* * *

Target: Papain (Carica papaya) (UniProt P00784)
Sequence (whole entry): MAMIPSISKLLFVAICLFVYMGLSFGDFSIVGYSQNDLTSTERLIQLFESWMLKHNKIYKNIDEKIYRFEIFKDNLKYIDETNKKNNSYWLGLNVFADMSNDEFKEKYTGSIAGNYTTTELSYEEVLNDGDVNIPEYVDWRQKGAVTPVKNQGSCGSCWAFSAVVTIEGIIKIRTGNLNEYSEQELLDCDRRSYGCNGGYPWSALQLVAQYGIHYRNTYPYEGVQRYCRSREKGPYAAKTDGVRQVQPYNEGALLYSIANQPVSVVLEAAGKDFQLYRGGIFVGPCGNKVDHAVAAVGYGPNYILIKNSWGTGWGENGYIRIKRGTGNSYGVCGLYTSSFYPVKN
Experiment: The apparent second-order rate constant for inactivation of papain enzyme. Apparent rate constant was determined from repeats of Kobs vs [I] using at least 5 values of [I].
OBSERVED_PROPERTY: k2/Ki (M⁻¹ s⁻¹)

{"COMPOUND_STRUCTURE": "CC(=O)N[C@@H](Cc1ccccc1)C(=O)NN(C)C(=O)Oc1ccccc1", "MEASURE_UNIT": "M⁻¹ s⁻¹", "k2/Ki": 110}
{"COMPOUND_STRUCTURE": "COC(=O)N(C)NC(=O)[C@H](Cc1ccccc1)NC(C)=O", "MEASURE_UNIT": "M⁻¹ s⁻¹", "k2/Ki": 0.05}
{"COMPOUND_STRUCTURE": "COC(=O)NNC(=O)[C@H](Cc1ccccc1)NC(C)=O", "MEASURE_UNIT": "M⁻¹ s⁻¹", "k2/Ki": 19}

1: CCOC(=O)N(C)NC(=O)[C@H](Cc1ccccc1)NC(C)=O
2: CC(=O)N[C@@H](Cc1ccccc1)C(=O)NNC(=O)Oc1ccccc1
Pick one: 1 or 2 . Which has the bigger k2/Ki number? Please indicate the selected item by its label.
2

P: CC(=O)N[C@@H](Cc1ccccc1)C(=O)NNC(=O)OCc1ccccc1
Q: CC(=O)N[C@@H](Cc1ccccc1)C(=O)NNC(=O)OCC(C)C
R: CC(=O)N[C@@H](Cc1ccccc1)C(=O)N/N=C(/N)S
S: CC(=O)N[C@@H](Cc1ccccc1)C(=O)NNC(=O)OCC(Cl)(Cl)Cl
T: CC(=O)N[C@@H](Cc1ccccc1)C(=O)NNC(=O)Nc1ccc([N+](=O)[O-])cc1
Rank ascending by k2/Ki. Answer by writing out the labels in the requested order.
R, T, Q, S, P
(R: 0.03 M⁻¹ s⁻¹, T: 1 M⁻¹ s⁻¹, Q: 55 M⁻¹ s⁻¹, S: 11800 M⁻¹ s⁻¹, P: 30500 M⁻¹ s⁻¹)

These entries and their values trace back to ChEMBL document CHEMBL1131524.
